# subject of test: T1, human ENA-78 (human, UniProt P42830 37-114, limits assumed)
# T1 sequence (looked up): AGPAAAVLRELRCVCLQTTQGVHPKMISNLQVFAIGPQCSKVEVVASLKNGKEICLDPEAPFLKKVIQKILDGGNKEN
# test name: cell-based or functional assay
quantity measured: FLIPR IC50 (mg/L)
Numbers only; they are read as mg/L.

>  <binder>
2X907.15 (antibody, IgG1, V domains shown) VH: EVKLVESGGGLVKPGGSLKLSCAASGFTFSDYYMYWVRQSPEKRLEWVATVSDVGSYTYYSGSVRGRFTISRDNAKNNLYLQMSSLQSEDTAIYYCSRDRTLDYWGQGTSVIVTS VL: QIVLTQSPAIMSASPGEKVTITCNASSSVSYMHWFQQKPGTSPKLWIYSTSNLASGVPARFSGSGSGTSYSLTISRMEAEDAATYYCHQRSSFPPTFGGGTKLEIK

>  <FLIPR IC50 (mg/L)>
2.6

$$$$

Please turn your attention to the following entry.
### Prompt Suppose we examine the binder 2X810.3 (antibody, IgG1, V domains shown) VH: QIQLQQSGPEVVKPGASVKISCKASGYIFTDNYIDWVQQRPGQGLEWIGWIFPGSGNTKYNEKFKGKATLTVDTFSSTAYMQLSSLTSEDTAVYFCAREIDYDYDGFFDVWGAGTTVTVSS VL: DIVMTPSHTFMSTSVGDRVIITSKASQDVGSAVAWYQQKPGQSPTLLIYWASTRHTGVPDRFTGSGSGTDFTLTISNLQSEDLADYFCQQYSTYPLTFGAGTKLELK ; what FLIPR IC50 value has been reported?
### Response 14.6
